Test system: 100 A. baumannii strains (50 MDR, 50 non-MDR)
Test: MIC broth microdilution at IHMA Europe, panel of 100 strains
Format: cell-based
Conditions: Acinetobacter baumannii, A. baumannii IHMA 2196914, South Africa 2020, MDR; read-out: MIC
ASSAY_METRIC: MIC (µg/mL)

MOLECULE	TESTED_SYSTEM	ASSAY_METRIC	BOUND_OPERATOR	VALUE_OBSERVED
C[C@@H](O)[C@H]1C(=O)N2C(C(=O)O)=C(S[C@@H]3CN[C@H](C(=O)N(C)C)C3)[C@H](C)[C@H]12 [Meropenem, meropenem]	100 A. baumannii strains (50 MDR, 50 non-MDR)	MIC	>	16
Cc1[nH]c(C(=O)Nc2nc3c(N4[C@@H]5CC[C@H]4COC5)cc(C(=O)O)cc3s2)c(Cl)c1Cl [7h]	100 A. baumannii strains (50 MDR, 50 non-MDR)	MIC	=	2
C[C@@H](O)[C@H]1C(=O)N2C(C(=O)O)=C(SCCNC=N)C[C@H]12 [Imipenem, imipenem]	100 A. baumannii strains (50 MDR, 50 non-MDR)	MIC	>	16
CO/N=C(\C(=O)N[C@@H]1C(=O)N2C(C(=O)[O-])=C(C[N+]3(C)CCCC3)CS[C@H]12)c1csc(N)n1 [Cefepime, cefepime]	100 A. baumannii strains (50 MDR, 50 non-MDR)	MIC	=	32
CN(C)c1cc(NC(=O)CNC(C)(C)C)c(O)c2c1C[C@H]1C[C@H]3[C@H](N(C)C)C(O)=C(C(N)=O)C(=O)[C@@]3(O)C(O)=C1C2=O [Tigecycline, tigecycline]	100 A. baumannii strains (50 MDR, 50 non-MDR)	MIC	=	4
O=C(O)c1cn(C2CC2)c2cc(N3CCNCC3)c(F)cc2c1=O [ciprofloxacin]	100 A. baumannii strains (50 MDR, 50 non-MDR)	MIC	>	16
